- assayed system: Cbl (aa49-434) (Homo sapiens)
- Construct: Cbl (aa49-434, in-house); made in house
- Sequence (P22681 49-434): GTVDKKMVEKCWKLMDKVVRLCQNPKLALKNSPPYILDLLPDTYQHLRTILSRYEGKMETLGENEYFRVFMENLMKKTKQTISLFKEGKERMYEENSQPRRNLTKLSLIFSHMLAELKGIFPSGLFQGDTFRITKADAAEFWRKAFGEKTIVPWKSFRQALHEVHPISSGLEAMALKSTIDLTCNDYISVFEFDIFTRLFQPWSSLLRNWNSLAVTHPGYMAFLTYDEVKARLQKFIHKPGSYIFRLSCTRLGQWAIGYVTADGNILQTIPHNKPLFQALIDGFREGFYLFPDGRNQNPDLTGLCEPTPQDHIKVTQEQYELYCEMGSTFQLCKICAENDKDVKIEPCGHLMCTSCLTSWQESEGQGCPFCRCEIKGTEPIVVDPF
- measurement protocol: Co-expressed Cbl with BirA biochemical assay (CBL/E2-Ub binding, HTRF)
- condition: 0.6 nM Cbl co-expressed with BirA, read-out: co-express CBL/E2-Ub-binding assay IC50
reported property: pIC50
Quick note: pIC50 values are minus log10 of concentrations in mol/L.

Cc1cnc2c(C(=O)Nc3cncc([C@]4(c5nncn5C)C[C@@H](C)C4)c3)cc(CN3CC[C@H](F)[C@H](C)C3)cn12 [Compound A55] : 8.17
Cn1cnnc1[C@]1(c2cccc(NC(=O)c3cc(CNC4(C)CC4)cc4c(F)cnn34)c2)C[C@H](C)C1 [Compound A92] : 8.60
Cn1cnnc1[C@]1(c2cccc(NC(=O)c3cc(CNC4(C)CCC4)cn4c(F)cnc34)c2)C[C@H](C)C1 [Compound A44] : 8.11
CC[C@H](C)NCc1cc(C(=O)Nc2cncc([C@]3(c4nncn4C)C[C@@H](C)C3)c2)nc2cc[nH]c12 [Compound B47] : 8.21
C[C@H]1CCCN(Cc2cc(C(=O)Nc3cccc([C@]4(c5nncn5C)C[C@@H](C)C4)c3)nc3cc[nH]c23)C1 [Compound B4] : 7.92
Cn1ccc2c(CNCC3CCC3)cc(C(=O)Nc3cccc([C@]4(c5nncn5C)C[C@@H](C)C4)c3)nc21 [Compound B45] : 7.78

Please find the next compound below.
## Input Given the entry Cn1cnnc1[C@]1(c2cccc(NC(=O)c3cc(CNC4(C)CC4)cn4cc(F)nc34)c2)C[C@H](CC#N)C1 [Compound A84] , report its measured pIC50.
## Output 7.92

----------
- assayed system: Cbl (aa49-434) (Homo sapiens)
- Construct: Cbl (aa49-434, in-house); made in house
- measurement protocol: Co-expressed Cbl with BirA biochemical assay (CBL/E2-Ub binding, HTRF)
- condition: 0.6 nM Cbl co-expressed with BirA, read-out: co-express CBL/E2-Ub-binding assay IC50
Each record is given Yes if its reported IC50 is strictly below 9 nM. Records at or above 9 nM are given No.

Worked examples, 3 molecules total:
Cn1cnnc1[C@]1(c2cccc(NC(=O)c3cc(CNC4(C)CCC4)c4[nH]ccc4n3)c2)C[C@H](CC#N)C1 [Compound B27] : Yes
Cn1cnnc1[C@]1(c2cccc(NC(=O)c3cc(CNC4(C)CC4)cn4ccnc34)c2)C[C@H](C)C1 [Compound A16] : Yes
C[C@H](NCc1cc(C(=O)Nc2cccc([C@]3(c4nncn4C)C[C@@H](CC#N)C3)c2)c2nccn2c1)C1CCCC1 [Compound A31] : Yes

## Input Please state whether IC50 is below 9 nM for CC(C)CNCc1cc(C(=O)Nc2cccc([C@]3(c4nncn4C)C[C@@H](C)C3)c2)c2nccn2c1 [Compound A18]
## Output Yes

## Input Please state whether IC50 is below 9 nM for C[C@H]1CCCN(Cc2cc(C(=O)Nc3cccc([C@]4(c5nncn5C)C[C@@H](CC#N)C4)c3)nc3c(F)c[nH]c23)C1 [Compound B11]
## Output No

## Input Please state whether IC50 is below 9 nM for Cn1ccc2nc(C(=O)Nc3cccc([C@]4(c5nncn5C)C[C@@H](CC#N)C4)c3)cc(CNC3(C)CC3)c21 [Compound B57]
## Output No

## Input Please state whether IC50 is below 9 nM for C[C@H]1CCCN(Cc2cc(C(=O)Nc3cccc([C@]4(Cc5nncn5C)C[C@@H](C#N)C4)c3)nc3c2NCC32CC2)C1 [Compound C17]
## Output Yes

## Input Please state whether IC50 is below 9 nM for Cn1cnnc1[C@]1(c2cccc(NC(=O)c3cc(CNCC4CCCC4)c4c(n3)C(C)(C)CO4)c2)C[C@H](C)C1 [Compound C33]
## Output No

## Input Please state whether IC50 is below 9 nM for Cn1cnnc1[C@]1(c2cccc(NC(=O)c3cc(CNC4(C)CCC4)c4c(n3)C(C)(C)CC4)c2)C[C@H](CC#N)C1 [Compound C40]
## Output No

## Input Please state whether IC50 is below 9 nM for Cn1cnnc1[C@]1(c2cccc(NC(=O)c3cc(CNCC4(C)CCC4)c4c(n3)C(C)(C)CC4)c2)C[C@H](CC#N)C1 [Compound C37]
## Output Yes

## Input Please state whether IC50 is below 9 nM for C[C@@H]1CN(Cc2cc(C(=O)Nc3cccc([C@]4(c5nncn5C)C[C@@H](CC#N)C4)c3)nc3c2NCC3(C)C)CC[C@@H]1F [Compound C47]
## Output Yes

## Input Please state whether IC50 is below 9 nM for Cn1cnnc1[C@]1(c2cncc(NC(=O)c3cc(CNC4(C)CC4)cn4c(F)cnc34)c2)C[C@H](C)C1 [Compound A74]
## Output Yes

## Input Please state whether IC50 is below 9 nM for Cn1cnnc1C[C@]1(c2cccc(NC(=O)c3cc(CNCC4(C)CCCC4)cn4ccnc34)c2)C[C@H](C#N)C1 [Compound A24]
## Output Yes

----------
# maps each entry to its pIC50
- assayed system: Cbl-b (aa36-427) (Homo sapiens, UniProt Q13191)
- Construct: Cbl-b (aa36-427, in-house); made in house
- Sequence (Q13191 36-427): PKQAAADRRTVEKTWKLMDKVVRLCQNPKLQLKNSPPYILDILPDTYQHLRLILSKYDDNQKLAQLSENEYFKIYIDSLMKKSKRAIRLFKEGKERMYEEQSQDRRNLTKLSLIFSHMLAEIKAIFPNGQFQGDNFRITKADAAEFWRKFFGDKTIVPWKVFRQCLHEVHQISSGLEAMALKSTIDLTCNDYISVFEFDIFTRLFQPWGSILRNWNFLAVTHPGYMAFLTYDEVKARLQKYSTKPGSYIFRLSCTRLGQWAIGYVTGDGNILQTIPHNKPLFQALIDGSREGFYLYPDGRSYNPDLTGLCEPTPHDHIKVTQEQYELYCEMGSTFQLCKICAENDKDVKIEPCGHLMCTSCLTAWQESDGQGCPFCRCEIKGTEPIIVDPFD
- measurement protocol: Co-expressed Cbl-b with BirA biochemical assay (CBLB/E2-Ub binding, HTRF)
- condition: 0.6 nM Cbl-b co-expressed with BirA, HTRF; read-out: co-express CBLB/E2-Ub-binding assay IC50
Quick note: pIC50 values are minus log10 of concentrations in mol/L.

Cc1cnc2c(C(=O)Nc3cncc([C@]4(c5nncn5C)C[C@@H](C)C4)c3)cc(CN3CC[C@H](F)[C@H](C)C3)cn12 [Compound A55] : 8.54
C[C@H]1CCCN(Cc2cc(C(=O)Nc3cccc([C@]4(c5nncn5C)C[C@@H](CC#N)C4)c3)nc3c2NCC3(C)C)C1 [Compound C13] : 8.96

Please find the next compound below.
## Input Given the entry C[C@H](NCc1cc(C(=O)Nc2cccc([C@]3(c4nncn4C)C[C@@H](C)C3)c2)nc2c(F)c[nH]c12)C1CCC1 [Compound B38] , report its measured pIC50.
## Output 9.30

----------
# maps each entry to its pIC50
- assayed system: Cbl-b (aa36-427) (Homo sapiens)
- Construct: Cbl-b (aa36-427, in-house); made in house
- measurement protocol: Co-expressed Cbl-b with BirA biochemical assay (CBLB/E2-Ub binding, HTRF)
- condition: 0.6 nM Cbl-b co-expressed with BirA, HTRF; read-out: co-express CBLB/E2-Ub-binding assay IC50
Quick note: pIC50 values are minus log10 of concentrations in mol/L.

Solved entries (count: 5):
C[C@H](NCc1cc(C(=O)Nc2cccc([C@]3(c4nncn4C)C[C@@H](CC#N)C3)c2)c2nccn2c1)C1CCC1 : 8.85
Cn1cnnc1[C@]1(c2cccc(NC(=O)c3cc(CNC4(C)CCC4)c4c(n3)C(C)(C)CC4)c2)C[C@H](CC#N)C1 : 8.60
C[C@H](NCc1cc(C(=O)Nc2cccc([C@]3(c4nncn4C)C[C@@H](C)C3)c2)nc2c1OCC2(C)C)C1CCCC1 : 8.89
C[C@H]1CCCN(Cc2cc(C(=O)Nc3cccc([C@]4(c5nncn5C)C[C@@H](CC#N)C4)c3)nc3c(Cl)c[nH]c23)C1 : 8.77
Cn1cnnc1[C@]1(c2cccc(NC(=O)c3cc(CNC4(C)CCC4)c4c(n3)C(C)(C)CN4)c2)C[C@H](CC#N)C1 : 8.74

Please find the next compound below.
## Input What measured pIC50 is associated with `Cn1cnnc1[C@]1(c2cccc(NC(=O)c3cc(CNCC4(C)CCC4)c4c(n3)C(C)(C)CC4)c2)C[C@H](CC#N)C1` on Cbl-b (aa36-427) (Homo sapiens)?
## Output 9.05

----------
- assayed system: Cbl (aa49-434) (Homo sapiens, UniProt P22681)
- Construct: Cbl (aa49-434, in-house); made in house
- measurement protocol: Co-expressed Cbl with BirA biochemical assay (CBL/E2-Ub binding, HTRF)
- condition: 0.6 nM Cbl co-expressed with BirA, read-out: co-express CBL/E2-Ub-binding assay IC50
# maps each entry to its IC50
Give the number; nM is assumed, so skip it.

Solved entries (count: 2):
C[C@H]1CCCN(Cc2cc(C(=O)Nc3cccc(C4(Cc5nncn5C)COC4)c3)nc3cc[nH]c23)C1 : 6.9
Cn1cnnc1[C@]1(c2cccc(NC(=O)c3cc(CNCC4CCC(F)(F)C4)c4c(n3)C(C)(C)CC4)c2)C[C@H](CC#N)C1 (stereo partly drawn) : 5.3

## Input Given the entry `C[C@H]1CCCN(Cc2cc(C(=O)Nc3cccc([C@]4(c5nncn5C)C[C@@H](CC#N)C4)c3)c3nc(F)cn3c2)C1` , report its measured IC50.
## Output 47
